# Tested on: MCF7
# Protocol Text: Cytotoxicity against human MCF7 cells by MTT assay
# Type: functional, cell-based
Measure: pIC50
Scale for pIC50: -log10 of concentration given in mol/L; no unit attached.

Prompt: # query: pIC50 | item COC(=O)[C@@H](C[C@](O)(C(=O)OC)[C@@H]1Cc2c(oc3cc(C)cc(OC(=O)c4ccc([N+](=O)[O-])cc4)c3c2=O)S1)OC(=O)c1ccc([N+](=O)[O-])cc1 | system: MCF7
Response: 5.22

Prompt: Same question, COC(=O)[C@@H](C[C@](O)(C(=O)OC)[C@@H]1Cc2c(oc3cc(C)cc(O)c3c2=O)S1)OC(=O)c1ccc([N+](=O)[O-])cc1 this time
Response: 5.13

Prompt: Cool, now COC(=O)C[C@](O)(C(=O)OC)[C@@H]1Cc2c(oc3cc(C)cc(O)c3c2=O)S1
Response: 5.36

Prompt: What do you get for COC(=O)[C@@H](C[C@](O)(C(=O)OC)[C@@H]1Cc2c(oc3cc(C)cc(O)c3c2=O)S1)OC(=O)c1cc(C(F)(F)F)cc(C(F)(F)F)c1 ?
Response: 5.16

Prompt: Quick one: COC(=O)[C@H](O)C[C@](O)(C(=O)OC)[C@@H]1Cc2c(oc3cc(C)cc(O)c3c2=O)S1
Response: 4.95
